Target: Cytochrome P450 1A2 (Homo sapiens)
Experiment: Cytochrome panel assay with activity outcomes
Details: recombinant CYP, pro-luciferin dealkylation, luminescence, p450-cyp1a2; series mostly up to 57.1 µM
Out of some 16,000 compounds screened, about 5,700 (36%) were called active. About 24% were inconclusive and are not listed. The list shows a part of the results.
Parameter measured: AC50

CCOc1ccccc1OCCOc1ccc(F)cc1 = 2.82 µM (active)
COc1ccc(OC)c(C2CC(=O)C3=C(C2)NC(=O)CC3c2ccc(O)c(OC)c2)c1 (stereo unspecified) = inactive
COc1ccc(C2C(=O)N(C3CCCCCC3)CC(=O)N2Cc2ccccc2)cc1OC (stereo unspecified) = inactive
CCc1cccc(CC)c1NC(=O)CN(CC(=O)O)CC(=O)O = inactive
Cc1ccc(SCc2[nH]nc3c2C(C(C)C)C(C#N)=C(N)O3)cc1 (stereo unspecified) = 12.6 µM (active)

Here's the next entry for you.
Need AC50, item `Cc1ccc(C(=O)NC(=S)Nc2cccc3nsnc23)cc1` inactive

Each recorded value in this set is attributed to PubChem BioAssay AID1851.
